Kindly supply the reported remaining at 2 h, 1 µM values for the records listed here.
Test system: Pancreatin
Assay: Protease stability in simulated intestinal fluid (Pancreatin-SIF, FaSSIF)
Format: in vitro ADME
Details: 120 min, 1 μM peptide, 37° C., read-out: FaSSIF 120 (min), remaining percent of peptide
Method: Studies were carried out in simulated intestinal fluid (SIF) and simulated gastric fluid (SGF) to evaluate gastric stability of the peptide compounds disclosed herein. […] To 76 μL of the Pepsin-SGF buffer, 4 μL of the 20 µM peptide stock solution was added and incubated at 37° C. […] The samples were centrifuged for 20 minutes and an aliquot of the supernatant 100 μL were transferred to a LoBind-MTP plate and analyzed by LCMS/MS. […]
Starred links: 1 amine or outer side, 2 acyl side, 3 side chain; linkers in the order of their positions; H or OH if unused. Positions of bridges follow the written chain, without caps; N, C: chain ends. Non-standard residues stand in square brackets, D forms with d. Residues, ends and D or L forms follow the SMILES beside them. *: point of attachment. Trp(7-Me) = Cc1cccc2c(C[C@H](N)C(=O)O)c[nH]c12; X1 = O=C(CCCCN[*:3])N[C@@H](CS[*:2])C(=O)[*:1]; 2Nal = N[C@@H](Cc1ccc2ccccc2c1)C(=O)O; 3Pal = N[C@@H](Cc1cccnc1)C(=O)O; αMeL = CC(C)C[C@](C)(N)C(=O)O; Thp = NC1(C(=O)O)CCOCC1; Me2NCH2CH2 = CN(C)CC*; Ava = NCCCCC(=O)O; Sar = CNCC(=O)O
// unit must come after the numeric part

Give the measured remaining at 2 h, 1 µM of CC(=O)NCCCC[C@@H]1NC(=O)[C@H](Cc2c[nH]c3c(C)cccc23)NC(=O)[C@@H](NC(C)=O)CCCCNC(=O)[C@@H]2CSSC[C@H](NC1=O)C(=O)N[C@@H](Cc1ccc(OCCN(C)C)cc1)C(=O)N[C@@H](Cc1ccc3ccccc3c1)C(=O)NC1(CCOCC1)C(=O)N[C@H](C(=O)N[C@@H](CC(N)=O)C(=O)N[C@@H](Cc1cccnc1)C(=O)N(C)CC(N)=O)CCC(=O)NCCCCC(=O)N2 [compound 66] (Ac-K[Trp(7-Me)]K(Ac)CY(Me2NCH2CH2)[2Nal][Thp]EN[3Pal][Sar]-NH2; linker 1-4-8 via X1) .
94%

Now try CC(C)C[C@@H](NC(=O)[C@H](CC(N)=O)NC(=O)[C@@H]1CCC(=O)NCCCCC(=O)N[C@H]2CSSC[C@H](NC(=O)[C@H](CCC(N)=O)NC(=O)[C@H](Cc3c[nH]c4ccccc34)NC(=O)[C@H]([C@@H](C)O)NC(=O)[C@H](CC(N)=O)NC2=O)C(=O)N[C@@H](Cc2ccc(OCCN(C)C)cc2)C(=O)N[C@@H](Cc2ccc3ccccc3c2)C(=O)N[C@@](C)(CC(C)C)C(=O)N1)C(N)=O [compound 10] ([Ava]CNTWQCY(Me2NCH2CH2)[2Nal][αMeL]EN[dL]-NH2; disulfide 2-7; lactam N-11) .
81%
